Entries and their measured hERG IC20 / TLR9 IC50 follow.
# EXPERIMENTAL SYSTEM: hERG channel (Homo sapiens, UniProt Q12809)
# Construct: expressed in transfected cells; host or cells: CHO (Chinese hamster ovary)
# Sequence (Q12809 whole entry): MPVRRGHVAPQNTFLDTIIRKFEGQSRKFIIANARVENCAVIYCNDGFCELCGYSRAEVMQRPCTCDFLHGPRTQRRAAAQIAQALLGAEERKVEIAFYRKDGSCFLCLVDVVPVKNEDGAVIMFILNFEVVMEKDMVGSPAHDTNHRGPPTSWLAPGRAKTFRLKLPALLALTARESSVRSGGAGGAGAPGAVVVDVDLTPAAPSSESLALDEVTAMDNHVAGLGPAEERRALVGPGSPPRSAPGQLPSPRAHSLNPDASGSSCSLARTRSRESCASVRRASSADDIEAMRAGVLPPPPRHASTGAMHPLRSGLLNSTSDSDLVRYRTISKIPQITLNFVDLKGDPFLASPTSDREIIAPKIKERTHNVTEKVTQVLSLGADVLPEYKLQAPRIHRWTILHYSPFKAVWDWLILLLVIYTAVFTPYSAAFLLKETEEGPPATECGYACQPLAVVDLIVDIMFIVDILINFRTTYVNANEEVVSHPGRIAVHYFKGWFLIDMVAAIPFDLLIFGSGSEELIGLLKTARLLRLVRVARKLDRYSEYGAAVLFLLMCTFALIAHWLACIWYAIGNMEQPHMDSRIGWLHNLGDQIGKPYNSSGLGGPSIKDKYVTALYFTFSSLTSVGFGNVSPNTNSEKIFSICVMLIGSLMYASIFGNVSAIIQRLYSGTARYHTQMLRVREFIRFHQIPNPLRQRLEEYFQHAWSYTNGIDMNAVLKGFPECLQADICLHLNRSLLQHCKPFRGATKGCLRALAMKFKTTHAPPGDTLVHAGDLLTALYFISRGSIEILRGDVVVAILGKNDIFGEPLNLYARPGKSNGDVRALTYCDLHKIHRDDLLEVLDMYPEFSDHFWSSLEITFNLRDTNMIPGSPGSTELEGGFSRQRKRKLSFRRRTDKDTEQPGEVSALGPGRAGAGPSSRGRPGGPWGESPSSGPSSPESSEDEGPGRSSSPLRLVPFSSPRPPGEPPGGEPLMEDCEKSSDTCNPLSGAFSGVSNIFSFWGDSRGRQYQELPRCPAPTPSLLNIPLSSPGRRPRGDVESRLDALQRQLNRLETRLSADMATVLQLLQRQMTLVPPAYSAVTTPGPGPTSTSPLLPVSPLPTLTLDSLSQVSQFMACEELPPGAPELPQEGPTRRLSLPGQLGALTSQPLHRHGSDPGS
# TEST PROTOCOL: hERG channel inhibition assay (patch-clamp, CHO hERG cells)
# Assay type: cell-based
# MEASUREMENT SETUP: safety ratio; TLR9 IC50 of ER compounds from Table 1
Just the number, please, no unit attached.

> print(dat)
                                   compound                       experimental.system     measured.parameter  endpoint.result
1  C[C@@H]1CN(c2ccc(C#N)c3ncccc23)C[C@H](CN2CCN(c3ccc4c(n3)CCNC4)CC2)O1  hERG channel (Homo sapiens, UniProt Q12809)  hERG IC20 / TLR9 IC50            122.8
2  C[C@@H]1CN(c2ccc(C#N)c3ncccc23)C[C@H](CN2CCN(c3ccc4c(c3)CNC4)CC2)O1  hERG channel (Homo sapiens, UniProt Q12809)  hERG IC20 / TLR9 IC50             64.5
3  C[C@@H]1CN(c2ccc(C#N)c3ncccc23)C[C@H](CN2CCN(c3ccc(Cl)cc3)CC2)O1 [Example R2, reference compound]  hERG channel (Homo sapiens, UniProt Q12809)  hERG IC20 / TLR9 IC50             0.04
4  C[C@@H]1CN(c2ccc(C#N)c3ncccc23)C[C@H](CN2CCN(c3ccc4c(n3)CNCC4)CC2)O1  hERG channel (Homo sapiens, UniProt Q12809)  hERG IC20 / TLR9 IC50            104.3
5  COc1ccc(N2CCN(C[C@H]3CN(c4ccc(C#N)c5ncccc45)C[C@@H](C)O3)CC2)cc1 [Example R1, reference compound]  hERG channel (Homo sapiens, UniProt Q12809)  hERG IC20 / TLR9 IC50              0.1

-- ask Consider the compound C[C@@H]1CN(c2ccc(C#N)c3ncccc23)C[C@H](CN2CCN(c3ccccc3)CC2)O1 [ER-887258, reference compound] and give its recorded hERG IC20 / TLR9 IC50.
-- reply 0.3

Reference source for all entries: patent EP3807270B1
